TESTED_TARGET: Syk-cSH2 (Homo sapiens, UniProt P43405)
Construct: polyhistidine (N); made in house; host or cells: Escherichia coli BL21 (DE3) pLysS
EXPERIMENTAL_DETAILS: Fluorescence quenching vesicle binding assay, Syk-cSH2
CONDITION_SET: Table 3; efficacy determined by the vesicle binding assay; read-out: IC50
Friendly reminder: IC50 below 2 µM is true, at or above is false.

>>> assigned_label("[N-]=[N+]=C(C(=O)OC1CCCCC1)C(Nc1ncccn1)c1ccco1 (racemic) [WC35]")
"true"
>>> assigned_label("Cc1ccc(/C(=C/C(=O)OC2CCCCC2)Nc2cnccn2)cc1 [WC-80]")
"false"
>>> assigned_label("[N-]=[N+]=C(C(=O)OC1CCCCC1)C(Nc1ccccn1)c1ccc(Br)cc1 (stereo not drawn) [WC-62]")
"false"
>>> assigned_label("[N-]=[N+]=C(C(=O)OC1CCCCC1)C(Nc1cnccn1)c1cccnc1 (stereo not drawn) [WC-125]")
"true"
>>> assigned_label("Cc1ccc(C(Nc2ncccn2)C(=[N+]=[N-])C(=O)ON2CCC(C)CC2)cc1 (stereo not drawn) [WC-105]")
"false"
>>> assigned_label("[N-]=[N+]=C(C(=O)OC1CCCCC1)C(Nc1ncccn1)c1ccc(Br)cc1 (stereo not drawn) [WC-68]")
"false"
>>> assigned_label("[N-]=[N+]=C(C(=O)OC1CCCC1)C(Nc1ccccn1)c1ccccc1 (stereo not drawn) [WC-118]")
"false"
>>> assigned_label("CCOC(=O)C(=[N+]=[N-])C(Nc1ccccn1)c1cccnc1 (stereo not drawn) [WC-128]")
"false"

Query block: I wonder whether COc1ccc(C(Nc2ncccn2)C(=[N+]=[N-])C(=O)OC2CCCCC2)cc1 (stereo not drawn) [WC-30] has IC50 below 2 µM. Can you tell?
Result block: false

Query block: I wonder whether COc1cc(C(Nc2ncccn2)C(=[N+]=[N-])C(=O)OC(C)(C)C)cc(OC)c1OC (stereo not drawn) [WC-59] has IC50 below 2 µM. Can you tell?
Result block: false

Query block: I wonder whether Cc1ccc(C(Nc2ncc(C)s2)C(=[N+]=[N-])C(=O)OC2CCCCC2)cc1 (stereo not drawn) [WC-92] has IC50 below 2 µM. Can you tell?
Result block: false

Query block: I wonder whether [N-]=[N+]=C(C(=O)OC1CCCCC1)C(Nc1ncccn1)c1c[nH]c2ccccc12 (racemic) [WC36] has IC50 below 2 µM. Can you tell?
Result block: true

Query block: I wonder whether [N-]=[N+]=C(C(=O)OC1CCCCC1)C(Nc1ncccn1)c1ccc(F)cc1 (stereo not drawn) [WC-32] has IC50 below 2 µM. Can you tell?
Result block: false

Query block: I wonder whether [N-]=[N+]=C(C(=O)OC1CCCCC1)C(Nc1ncccn1)c1c(F)c(F)c(F)c(F)c1F (stereo not drawn) [WC-70] has IC50 below 2 µM. Can you tell?
Result block: false
